system: Mus musculus; test: Toxicity in ip dosed Charles River CD-1 albino mouse measured within 5 mins; assay type: organism-based; settings: mouse, in vivo, 5 min
// reported LD95 per item
Give the quantity in mg/kg, number only.

CCCCC[N+](C)(C)CC(=O)c1ccc(-c2ccc(C(=O)C[N+](C)(C)CCCCC)cc2)cc1.[Br-].[Br-] | 5.8
CCOCC[N+](C)(C)CC(=O)c1ccc(-c2ccc(C(=O)C[N+](C)(C)CCOCC)cc2)cc1.[Br-].[Br-] | 2.67

Note to self: LD95 recorded for C[N+]1(C)CCOC(O)(c2ccc(-c3ccc(C4(O)C[N+](C)(C)CCO4)cc3)cc2)C1 (stereo not given) [HEMICHOLINIUM-3] was 0.2

Note to self: LD95 recorded for "CC(=O)OCC[N+](C)(C)CC(=O)c1ccc(-c2ccc(C(=O)C[N+](C)(C)CCOC(C)=O)cc2)cc1.[Br-].[Br-]" was 0.4

Note to self: LD95 recorded for "CC(=O)CCC[N+](C)(C)CC(=O)c1ccc(-c2ccc(C(=O)C[N+](C)(C)CCCC(C)=O)cc2)cc1.[Br-].[Br-]" was 4.6
